The measured values listed here are drawn from the Deep4Chem optical property database.

assay: solvent given as SMILES; conditions: in c1ccccc1
Record form. Attribute: emission maximum. Fill in for each entry.
Answer format reminder: number followed by unit.

Completed entries (count: 7):
CCOC(=O)CCCn1c(C(=O)OC)c(C)c2c(=O)n3c(cc21)C(CC)=C(C)C3=O = 446 nm
CN(C)c1ccc(C(=O)c2ccccc2)cc1 = 497 nm
CCCCN(CCCC)c1ccc(C#Cc2cc(C#Cc3ccc(N(CCCC)CCCC)cc3)c(C#Cc3c(F)c(F)c(F)c(F)c3F)cc2C#Cc2c(F)c(F)c(F)c(F)c2F)cc1 = 512 nm
CCCCN(CCCC)c1ccc(C#Cc2cc(C#Cc3ccc(N(CCCC)CCCC)cc3)c(C#Cc3cc(C(F)(F)F)cc(C(F)(F)F)c3)cc2C#Cc2cc(C(F)(F)F)cc(C(F)(F)F)c2)cc1 = 514 nm
CCOC(=O)CSc1nc(C)c(CC)c(C#N)c1C#N = 407 nm
Cc1cc(C)c(B(c2c(C)cc(C)cc2C)c2cc3ccc4ccccc4c3c3c2cc(N(C)C)c2ccccc23)c(C)c1 = 582 nm
Cc1ccc(Nc2ccc(Nc3ccc(C)cc3)c3c2C(=O)c2ccccc2C3=O)cc1 = 684 nm

--- query ---
INPUT: Give the measured emission maximum of Cc1ccc(-c2c3ccc([nH]3)c3nc(c(-c4ccc([N+](=O)[O-])cc4)c4ccc([nH]4)c4ccc([nH]4)c(-c4ccc(C)cc4)c4ccc2o4)C=C3)cc1 .
OUTPUT: 737 nm
